The measured values listed here are drawn from patent US10004732B2.

Biological target: mTOR (Homo sapiens)
Assay: Lanthascreen kinase binding assay, assay G
Conditions: read-out: Assay G mTOR IC50
pIC50: −log10 of the molar value.
Recorded endpoint: pIC50

Incoming: Find the recorded pIC50 belonging to Cc1ccc(S(=O)(=O)NCC(C)(C)O)cc1-c1cnc(N)c(-c2nc(C3CC3)no2)n1 [Example 95] and report it.
Outgoing: 5.13

###

Molecular target: Vps34 (Homo sapiens, UniProt Q8NEB9)
Sequence (Q8NEB9 whole entry, species assumed): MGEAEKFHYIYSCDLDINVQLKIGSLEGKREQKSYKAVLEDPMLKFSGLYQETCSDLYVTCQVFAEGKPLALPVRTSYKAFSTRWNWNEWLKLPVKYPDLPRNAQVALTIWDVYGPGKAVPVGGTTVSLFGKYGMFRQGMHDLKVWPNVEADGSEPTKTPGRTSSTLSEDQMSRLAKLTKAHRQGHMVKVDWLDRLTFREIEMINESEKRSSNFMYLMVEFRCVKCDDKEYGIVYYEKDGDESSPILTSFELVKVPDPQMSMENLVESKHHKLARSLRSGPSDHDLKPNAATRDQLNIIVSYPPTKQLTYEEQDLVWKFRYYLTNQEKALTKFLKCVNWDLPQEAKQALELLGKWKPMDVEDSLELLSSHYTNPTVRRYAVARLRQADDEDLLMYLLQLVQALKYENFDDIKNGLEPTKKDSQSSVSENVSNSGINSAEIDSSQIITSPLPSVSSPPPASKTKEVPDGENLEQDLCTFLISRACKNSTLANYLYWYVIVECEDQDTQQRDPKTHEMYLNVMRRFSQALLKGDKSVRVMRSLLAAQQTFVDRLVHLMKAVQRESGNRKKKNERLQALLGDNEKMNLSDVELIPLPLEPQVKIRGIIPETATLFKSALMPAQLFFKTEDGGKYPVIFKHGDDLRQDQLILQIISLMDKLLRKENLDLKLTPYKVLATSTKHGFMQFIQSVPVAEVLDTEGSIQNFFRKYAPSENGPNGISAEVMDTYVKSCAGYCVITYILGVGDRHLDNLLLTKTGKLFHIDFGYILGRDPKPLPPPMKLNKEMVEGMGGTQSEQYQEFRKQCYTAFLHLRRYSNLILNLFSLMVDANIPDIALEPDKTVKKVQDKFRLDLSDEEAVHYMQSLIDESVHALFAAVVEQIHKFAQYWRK
Test: Kinase Glo Luminescent Kinase Assay (Kglo), assay C
Format: biochemical
Conditions: read-out: Assay C VPS34 IC50
pIC50: −log10 of the molar value.
Recorded endpoint: pIC50

Cc1ccc(S(=O)(=O)NCCC(C)(C)O)cc1-c1cnc(N)c(-c2ccnn2C)n1 :: < 5.04
Cc1ccc(S(=O)(=O)NC2CCOC2=O)cc1-c1cnc(N)c(-n2cncn2)n1 (stereo not drawn) :: < 5.00
Cc1nnc(-c2nc(-c3cc(S(=O)(=O)N[C@H]4CC[C@H](O)CC4)ccc3C)cnc2N)o1 :: < 5.04

Incoming: Find the recorded pIC50 belonging to Cc1cc(-c2nc(-c3cc(S(=O)(=O)NCC4CCCCO4)ccc3C)cnc2N)ccn1 (stereo not drawn) and report it.
Outgoing: < 5.04

Incoming: Find the recorded pIC50 belonging to Cc1ccc(S(=O)(=O)NCCC(C)(O)C(F)(F)F)cc1-c1cnc(N)c(-n2cncn2)n1 (stereo not drawn) and report it.
Outgoing: < 5.00

Incoming: Find the recorded pIC50 belonging to "Cc1cc(-c2nc(-c3cc(S(=O)(=O)N4CCC(N)CC4)ccc3C)cnc2N)ccn1" and report it.
Outgoing: < 5.04

Incoming: Find the recorded pIC50 belonging to "CCc1noc(-c2nc(-c3cc(S(=O)(=O)NC4CNC4)ccc3C)cnc2N)n1" and report it.
Outgoing: < 5.04

Incoming: Find the recorded pIC50 belonging to Cc1ncc(-c2nc(-c3cc(S(=O)(=O)N[C@H]4C[C@@H](O)C4)ccc3C)cnc2N)s1 [Example 43a] and report it.
Outgoing: 5.60

Incoming: Find the recorded pIC50 belonging to "Cc1ccc(S(=O)(=O)NCCC(C)(C)O)cc1-c1cnc(N)c(-n2cnc(C(C)C)n2)n1" and report it.
Outgoing: < 5.04

Incoming: Find the recorded pIC50 belonging to "Cc1ccc(S(=O)(=O)NCCC(C)(C)O)cc1-c1cnc(N)c(-c2ccc(N3CCCC3)nc2)n1" and report it.
Outgoing: < 5.04

Incoming: Find the recorded pIC50 belonging to "Cc1nc(-c2nc(-c3cc(S(=O)(=O)NCC(C)(C)O)ccc3C)cnc2N)c(C)s1" and report it.
Outgoing: < 5.00

###

Molecular target: PI 3-kinase delta (Homo sapiens, UniProt O00329)
Sequence (O00329 whole entry): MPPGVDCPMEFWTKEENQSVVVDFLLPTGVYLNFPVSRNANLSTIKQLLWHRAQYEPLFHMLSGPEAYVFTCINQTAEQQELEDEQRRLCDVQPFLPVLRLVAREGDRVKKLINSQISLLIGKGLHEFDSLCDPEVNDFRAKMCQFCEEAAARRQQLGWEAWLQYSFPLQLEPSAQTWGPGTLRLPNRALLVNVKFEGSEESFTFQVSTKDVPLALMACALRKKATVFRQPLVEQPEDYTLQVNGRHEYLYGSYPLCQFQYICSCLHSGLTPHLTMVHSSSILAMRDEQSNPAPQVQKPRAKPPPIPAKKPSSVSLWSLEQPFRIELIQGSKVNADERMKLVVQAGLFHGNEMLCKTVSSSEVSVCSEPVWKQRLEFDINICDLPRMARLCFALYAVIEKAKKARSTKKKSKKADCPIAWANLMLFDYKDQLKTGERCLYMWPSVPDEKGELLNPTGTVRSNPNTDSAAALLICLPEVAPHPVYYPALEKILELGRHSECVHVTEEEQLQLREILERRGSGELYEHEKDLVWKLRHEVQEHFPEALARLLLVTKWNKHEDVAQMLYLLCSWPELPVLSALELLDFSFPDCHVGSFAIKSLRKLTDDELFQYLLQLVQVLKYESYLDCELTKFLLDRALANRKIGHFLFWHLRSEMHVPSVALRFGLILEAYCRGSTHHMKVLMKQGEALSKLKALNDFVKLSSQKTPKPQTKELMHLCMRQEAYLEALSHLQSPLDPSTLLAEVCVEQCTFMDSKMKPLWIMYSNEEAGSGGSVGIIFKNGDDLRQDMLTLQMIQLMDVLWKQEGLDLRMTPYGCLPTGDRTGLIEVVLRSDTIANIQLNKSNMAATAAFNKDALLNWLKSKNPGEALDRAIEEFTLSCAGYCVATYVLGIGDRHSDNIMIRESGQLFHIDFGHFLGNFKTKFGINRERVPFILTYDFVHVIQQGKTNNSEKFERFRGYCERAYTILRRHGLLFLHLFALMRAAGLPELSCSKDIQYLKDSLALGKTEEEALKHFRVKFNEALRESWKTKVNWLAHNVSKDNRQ
Sequence (P27986 461-568 partner): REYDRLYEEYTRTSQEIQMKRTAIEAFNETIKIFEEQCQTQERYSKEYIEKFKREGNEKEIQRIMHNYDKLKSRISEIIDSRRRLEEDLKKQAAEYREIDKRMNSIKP
Test: TR-FRET Adapta assay, assay F
Settings: read-out: Assay F PI3Kδ IC50
Recorded endpoint: IC50 (nM)
Report as a plain number; the unit nM is understood.

Cc1cc(-c2nc(-c3cc(S(=O)(=O)N[C@H]4CC[C@H](N)CC4)ccc3C)cnc2N)ccn1 [Example 129.43] :: 2300

Incoming: Observed IC50 on PI 3-kinase delta (Homo sapiens, UniProt O00329) for Cc1ccc(S(=O)(=O)NC[C@H]2C[C@@H](O)C2)cc1-c1cnc(N)c(-n2cncn2)n1 [Example 72] , please.
Outgoing: 390

Incoming: Observed IC50 on PI 3-kinase delta (Homo sapiens, UniProt O00329) for Cc1ccc(S(=O)(=O)NCCC(C)(C)O)cc1-c1cnc(N)c(-c2ccc(F)nc2)n1 [Example 119.18] , please.
Outgoing: 580

Incoming: Observed IC50 on PI 3-kinase delta (Homo sapiens, UniProt O00329) for Cc1nnc(-c2nc(-c3cc(S(=O)(=O)N[C@H]4CC[C@H](O)CC4)ccc3C)cnc2N)o1 [Example 1] , please.
Outgoing: 1010

Incoming: Observed IC50 on PI 3-kinase delta (Homo sapiens, UniProt O00329) for Cc1ncn(-c2nc(-c3cc(S(=O)(=O)NCC(C)(C)O)ccc3C)cnc2N)n1 [Example 25] , please.
Outgoing: 1030

Incoming: Observed IC50 on PI 3-kinase delta (Homo sapiens, UniProt O00329) for Cc1ccc(S(=O)(=O)NCCC(C)(C)O)cc1-c1cnc(N)c(-c2ccncc2F)n1 [Example 119.11] , please.
Outgoing: 1100

###

Target: Vps34 (Homo sapiens)
Assay: Kinase Glo Luminescent Kinase Assay (Kglo), assay C
Assay type: biochemical
Conditions: read-out: Assay C VPS34 IC50
Recorded endpoint: IC50

Here's what some known entries look like.
Cc1cc(-c2nc(-c3cc(S(=O)(=O)NC4CCN(C(C)C)CC4)ccc3C)cnc2N)ccn1 :: > 9.1 µM
Cc1ccc(S(=O)(=O)NCC(C)(C)O)cc1-c1cnc(N)c(-c2cn(C)nc2C)n1 :: > 10 µM
Cc1ccc(S(=O)(=O)NCCC(C)(C)O)cc1-c1cnc(N)c(-c2ccc(F)nc2)n1 :: > 9.1 µM
Cc1ncc(-c2nc(-c3cc(S(=O)(=O)N[C@H]4CC[C@H](O)CC4)ccc3C)cnc2N)s1 :: 0.42 µM
Cc1ccc(S(=O)(=O)N[C@H]2CC[C@@](C)(O)CC2)cc1-c1cnc(N)c(-n2cncn2)n1 [Example 69b] :: > 10 µM

Incoming: Find the recorded IC50 belonging to "Cc1ccc(S(=O)(=O)NC2CC(F)(F)C2)cc1-c1cnc(N)c(-n2cncn2)n1" and report it.
Outgoing: > 10 µM

Incoming: Find the recorded IC50 belonging to Cc1ccc(S(=O)(=O)NC2CC3(CC(O)C3)C2)cc1-c1cnc(N)c(-n2cncn2)n1 (single isomer, unassigned) [Example 70a] and report it.
Outgoing: > 10 µM

###

Biological target: UniProtKB P42336
Assay: Kinase Glo Luminescent Kinase Assay (Kglo), assay A
Format: biochemical
Details: read-out: Assay A PI3Kα IC50
Quick list: pIC50 per entry.
Scale: pIC50 equals -log10([C]), with [C] in mol/L.

Cc1ccc(S(=O)(=O)NCCCCCO)cc1-c1cnc(N)c(-n2cncn2)n1 :: 5.64
Cc1ccc(S(=O)(=O)NC2(CO)CC2)cc1-c1cnc(N)c(-n2cncn2)n1 :: 5.77
Cc1ccc(S(=O)(=O)NCC(C)(C)O)cc1-c1cnc(N)c(-c2nc(C3CC3)no2)n1 :: 6.05
Cc1ccc(S(=O)(=O)NC2CC(F)(F)C2)cc1-c1cnc(N)c(-n2cncn2)n1 :: 6.59
Cc1ccc(S(=O)(=O)NCCC(C)(C)O)cc1-c1cnc(N)c(-c2cn(C)nc2C)n1 :: 6.85
Cc1ccc(S(=O)(=O)NC[C@H]2C[C@@H](O)C2)cc1-c1cnc(N)c(-n2cncn2)n1 :: 6.24
Cc1ncc(-c2nc(-c3cc(S(=O)(=O)N[C@H]4C[C@H](O)C4)ccc3C)cnc2N)s1 [Example 43b] :: 6.64
Cc1ccc(S(=O)(=O)NCC(C)(C)O)cc1-c1cnc(N)c(-c2cnc(C3CC3)s2)n1 :: 7.40

Then there is this molecule:
Incoming: Find the recorded pIC50 belonging to Cc1ccc(S(=O)(=O)NCC[C@@H](O)C(F)(F)F)cc1-c1cnc(N)c(-c2cn(C)nc2C)n1 (single isomer, unassigned) [Example 52b] and report it.
Outgoing: 6.64

###

Target: PI 3-kinase beta (Homo sapiens)
Sequence (P42338 whole entry): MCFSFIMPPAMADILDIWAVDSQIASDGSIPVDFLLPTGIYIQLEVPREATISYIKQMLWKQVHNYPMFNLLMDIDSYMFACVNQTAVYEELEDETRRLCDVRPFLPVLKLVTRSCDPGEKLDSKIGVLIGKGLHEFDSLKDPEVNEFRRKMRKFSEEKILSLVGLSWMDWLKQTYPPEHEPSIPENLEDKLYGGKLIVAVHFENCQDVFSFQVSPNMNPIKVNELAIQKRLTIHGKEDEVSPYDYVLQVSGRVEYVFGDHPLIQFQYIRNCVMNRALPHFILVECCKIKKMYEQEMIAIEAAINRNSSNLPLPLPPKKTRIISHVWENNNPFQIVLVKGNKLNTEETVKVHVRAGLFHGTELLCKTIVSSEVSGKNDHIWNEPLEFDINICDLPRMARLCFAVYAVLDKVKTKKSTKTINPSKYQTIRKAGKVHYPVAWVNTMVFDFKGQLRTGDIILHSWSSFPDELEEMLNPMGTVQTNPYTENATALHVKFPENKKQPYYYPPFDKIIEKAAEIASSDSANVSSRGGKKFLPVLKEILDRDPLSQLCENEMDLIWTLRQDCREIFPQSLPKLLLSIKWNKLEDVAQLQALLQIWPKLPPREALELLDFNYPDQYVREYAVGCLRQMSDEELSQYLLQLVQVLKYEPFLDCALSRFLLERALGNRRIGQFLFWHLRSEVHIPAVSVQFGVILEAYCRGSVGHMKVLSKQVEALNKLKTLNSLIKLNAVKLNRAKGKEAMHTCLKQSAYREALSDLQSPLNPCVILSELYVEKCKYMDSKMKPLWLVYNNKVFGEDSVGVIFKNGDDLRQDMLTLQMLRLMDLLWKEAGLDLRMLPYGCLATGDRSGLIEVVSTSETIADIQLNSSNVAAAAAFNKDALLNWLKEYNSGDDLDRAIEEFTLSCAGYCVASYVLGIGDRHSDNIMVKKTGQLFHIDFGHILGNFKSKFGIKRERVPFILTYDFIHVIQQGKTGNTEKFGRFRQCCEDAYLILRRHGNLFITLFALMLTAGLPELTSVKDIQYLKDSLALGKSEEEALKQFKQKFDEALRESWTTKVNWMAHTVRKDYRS
Sequence (P27986 461-568 partner): as the sequence (P27986 461-568 partner) above
Test: Kinase Glo Luminescent Kinase Assay (Kglo), assay B
Format: biochemical
Settings: read-out: Assay B PI3Kβ IC50
pIC50: −log10 of the molar value.
Quick list: pIC50 per entry.

Cc1ccc(S(=O)(=O)NCCC(C)(C)O)cc1-c1cnc(N)c(-c2ccncc2F)n1 :: < 5.04
Cc1cc(-c2nc(-c3cc(S(=O)(=O)NCC(C)(C)CN(C)C)ccc3C)cnc2N)ccn1 :: < 5.04
CCOc1ccc(-c2nc(-c3cc(S(=O)(=O)NCCC(C)(C)O)ccc3C)cnc2N)cn1 :: < 5.04
Cc1ccc(S(=O)(=O)N[C@@H]2CCOC2)cc1-c1cnc(N)c(-n2cncn2)n1 :: 5.29
Cc1cc(-c2nc(-c3cc(S(=O)(=O)N4CC[C@@H](N)C4)ccc3C)cnc2N)ccn1 :: 5.19
Cc1cc(F)c(S(=O)(=O)NCCC(C)(C)O)cc1-c1cnc(N)c(-n2cncn2)n1 :: < 5.04
Cc1ccc(S(=O)(=O)N2CC(F)(F)C(F)(F)C2)cc1-c1cnc(N)c(-n2cncn2)n1 :: < 5.00
Cc1ccc(S(=O)(=O)NCCC(C)(C)O)cc1-c1cnc(N)c(-c2cc(Cl)cnc2F)n1 :: < 5.04
Cc1ccc(S(=O)(=O)NCCC(C)(C)O)cc1-c1cnc(N)c(-c2ccc(N3CCCC3)nc2)n1 :: < 5.04

Incoming: Find the recorded pIC50 belonging to "COc1ccncc1-c1nc(-c2cc(S(=O)(=O)NCCC(C)(C)O)ccc2C)cnc1N" and report it.
Outgoing: < 5.04

###

Biological target: PI 3-kinase alpha (Homo sapiens, UniProt P42336)
Sequence (P42336 whole entry): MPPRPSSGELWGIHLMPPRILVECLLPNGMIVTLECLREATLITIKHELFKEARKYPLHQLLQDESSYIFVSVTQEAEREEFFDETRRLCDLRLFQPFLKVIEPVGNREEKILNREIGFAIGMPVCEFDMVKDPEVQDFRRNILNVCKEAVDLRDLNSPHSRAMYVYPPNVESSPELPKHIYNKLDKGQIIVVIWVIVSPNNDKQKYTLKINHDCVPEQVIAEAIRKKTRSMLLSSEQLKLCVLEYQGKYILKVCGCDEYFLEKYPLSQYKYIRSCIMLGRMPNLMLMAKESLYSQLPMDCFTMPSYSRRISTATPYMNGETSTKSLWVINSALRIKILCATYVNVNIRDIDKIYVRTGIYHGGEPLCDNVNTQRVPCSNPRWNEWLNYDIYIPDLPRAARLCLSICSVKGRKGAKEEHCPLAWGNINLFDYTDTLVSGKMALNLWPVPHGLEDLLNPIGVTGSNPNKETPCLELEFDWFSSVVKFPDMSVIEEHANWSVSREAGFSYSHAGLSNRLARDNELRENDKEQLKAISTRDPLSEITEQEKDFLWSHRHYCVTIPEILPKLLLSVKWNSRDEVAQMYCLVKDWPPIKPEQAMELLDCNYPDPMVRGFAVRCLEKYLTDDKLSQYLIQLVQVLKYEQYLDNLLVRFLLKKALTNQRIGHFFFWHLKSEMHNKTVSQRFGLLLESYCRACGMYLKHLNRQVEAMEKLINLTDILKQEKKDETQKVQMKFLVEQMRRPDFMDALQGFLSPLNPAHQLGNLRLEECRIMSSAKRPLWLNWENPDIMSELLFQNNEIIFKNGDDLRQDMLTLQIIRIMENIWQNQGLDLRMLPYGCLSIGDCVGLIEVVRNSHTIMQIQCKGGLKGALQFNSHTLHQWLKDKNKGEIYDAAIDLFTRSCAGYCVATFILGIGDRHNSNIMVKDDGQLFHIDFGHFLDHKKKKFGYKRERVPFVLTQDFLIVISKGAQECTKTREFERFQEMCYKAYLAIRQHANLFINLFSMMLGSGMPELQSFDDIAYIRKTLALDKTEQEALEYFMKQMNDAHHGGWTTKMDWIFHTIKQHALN
Assay: Kinase Glo Luminescent Kinase Assay (Kglo), assay A
Type: biochemical
Conditions: read-out: Assay A PI3Kα IC50
Quick list: pIC50 per entry.
Scale: pIC50 equals -log10([C]), with [C] in mol/L.

Cc1ccc(S(=O)(=O)NCC2CCCOC2)cc1-c1cnc(N)c(-n2cncn2)n1 (stereo not drawn) :: 6.59
Cc1cc(-c2nc(-c3cc(S(=O)(=O)NC[C@@](C)(O)C(F)(F)F)ccc3C)cnc2N)ccn1 :: 6.49

Then there is this molecule:
Incoming: Find the recorded pIC50 belonging to "Cc1ccc(S(=O)(=O)N2CC(F)C2)cc1-c1cnc(N)c(-n2cncn2)n1" and report it.
Outgoing: 6.40
